The measured values listed here are drawn from PubChem BioAssay AID651958.

System: Crimean-Congo hemorrhagic fever virus L polyprotein viral ovarian tumor (vOTU) protease domain
Experiment: CCHFV vOTU protease inhibitors, primary screen, biochemical, Pep-AMC substrate, fluorescence (AID 651958); note: 0% = vehicle wells with enzyme and 100% = no enzyme wells
Conditions: at 11.5 µM, stronger effect = higher value
Screen size: about 370,000 compounds; about 2,000 (0.54%) were called active. The sample holds actives, similar compounds and a random draw of the others, so the mix is not that of the screen.

- compound: "COc1ccc(C(C(=O)NC(C)(C)C)N(C(=O)Cn2nnc3ccccc32)c2ccc(C(C)=O)cc2)cc1O (stereo not given)"
  inhibition / %: 21.7
- compound: "COc1cccc(NC(=O)C2C(c3ccccc3)C2(Cl)Cl)c1 (stereo not given)"
  inhibition / %: -4.86
- compound: "CC(C)[C@H](NC(=O)N1CCn2c1nc1ccccc12)C(=O)NCCc1ccccc1"
  inhibition / %: 25.4
- compound: "CCOc1ccc(NC(=O)CCCCCN2C(=O)[C@@H]3Cc4ccccc4CN3C2=O)cc1"
  inhibition / %: 13.7
- compound: "Cc1ccc(C)c(OCCC(=O)OCC(=O)NC(=O)NCc2ccccc2)c1"
  inhibition / %: 0.04
- compound: "CC(Oc1cccc(Cl)c1)C(=O)Nc1ccc(S(=O)(=O)Nc2ncccn2)cc1 (stereo not given)"
  inhibition / %: -1.27
- compound: "Oc1ccc(N=Cc2sc3ccccc3c2Cl)cc1"
  inhibition / %: 97.4
- compound: "COc1ccc2c(c1)C(C)=CC(C)(C)N2C(=O)Nc1ccccc1"
  inhibition / %: 51.4
- compound: "CCc1ccc(OC(C)C(=O)Nc2ccc(S(=O)(=O)Nc3cc(C)on3)cc2)cc1 (stereo not given)"
  inhibition / %: 7.95
- compound: "Nc1ccc(N=Nc2ccccc2Cl)c(N)n1"
  inhibition / %: 30
